# Organism: Mus musculus
# Assay Info: Orexigenic activity in H1RKO mouse
# Format: functional, organism-based
Calls of active or inactive are those of the source. The calls are words filed in the database; no cut-off is given here.
Respond only with the outcome that fits, drawn from Yes (active), No (inactive)

Lookup: For this compound, state the assay outcome: OCCOCCN1CCN(C2=Nc3ccccc3Sc3ccccc32)CC1
Found: Yes

Lookup: Likewise for O=C1Cc2cc(CCN3CCN(c4nsc5ccccc45)CC3)c(Cl)cc2N1 ?
Found: No

Lookup: Likewise for Cc1cc2c(s1)Nc1ccccc1N=C2N1CCN(C)CC1 ?
Found: Yes

Lookup: Likewise for O=C1CCc2ccc(OCCCCN3CCN(c4cccc(Cl)c4Cl)CC3)cc2N1 [ARIPIPRAZOLE] ?
Found: No

Lookup: Likewise for O=C(CCCN1CCC(O)(c2ccc(Cl)cc2)CC1)c1ccc(F)cc1 ?
Found: No

Lookup: Likewise for CN1CCN(C2=Nc3cc(Cl)ccc3Nc3ccccc32)CC1 [CLOZAPINE] ?
Found: Yes

These data points were gathered from ChEMBL document CHEMBL1147084.
